system: HIV-IIIb IN T174I DE; assay: Antiviral assay in MT4 cells, HIV-IIIb IN T174I DE virus (from dose escalation passaging); format: cell-based, HIV-1; settings: Human immunodeficiency virus 1, IIIB, MT4, 120 h, read-out: T174I DE EC50, MT4 cells, HIV-IIIb IN T174I DE (dose escalation), 5 days, CellTiter-Glo
reported endpoint: EC50 (nM)
// return numeric value only (unit: nM, not printed)

Solved cases (2 shown):
{"columns": ["molecule", "EC50, nM"],
 "data": [
  ["Cc1cc2nc(-c3ccc4c(c3)c(C3CCN(C(=O)C5CCO5)CC3)nn4C)sc2c(-c2ccc(Cl)cc2)c1[C@H](OC(C)(C)C)C(=O)O (stereo partly drawn)", 583],
  ["Cc1cc2nc(-c3ccc4c(c3)c(C3CCN(C(=O)C5(C)COC5)CC3)nn4C)sc2c(-c2ccc(Cl)cc2)c1[C@H](OC(C)(C)C)C(=O)O", 756]
]}

Record summary for "CN[C@@H]1CCN(c2nn(C)c3ccc(-c4nc5cc(C)c([C@H](OC(C)(C)C)C(=O)O)c(-c6ccc(Cl)cc6)c5s4)cc23)C1" : reported EC50 = 11500

All figures here come from patent US10800772B2.
